- Tested target: T117-F MPER scaffold
- Experiment summary: BLI
Measured metric: Kd (nM)
Numbers only here, please. The scale is nM.

The following binders have reported results that may help.
- Binder: "10E8v4-P100fA-P100gA Fab (Fab, V domains shown) VH: EVRLVESGGGLVKPGGSLRLSCSASGFDFDNAWMTWVRQPPGKGLEWVGRITGPGEGWSVDYAESVKGRFTISRDNTKNTLYLEMNNVRTEDTGYYFCARTGKYYDFWSGYAAGEEYFQDWGQGTLVIVSS VL: ASELTQDPAVSVALKQTVTITCRGDSLRSHYASWYQKKPGQAPVLLFYGKNNRPSGIPDRFSGSASGNRASLTITGAQAEDEADYYCSSRDKSGSRLSVFGGGTKLTVL"
  Kd (nM): 2750
- Binder: "10E8v4-P100gA Fab (Fab, V domains shown) VH: EVRLVESGGGLVKPGGSLRLSCSASGFDFDNAWMTWVRQPPGKGLEWVGRITGPGEGWSVDYAESVKGRFTISRDNTKNTLYLEMNNVRTEDTGYYFCARTGKYYDFWSGYPAGEEYFQDWGQGTLVIVSS VL: ASELTQDPAVSVALKQTVTITCRGDSLRSHYASWYQKKPGQAPVLLFYGKNNRPSGIPDRFSGSASGNRASLTITGAQAEDEADYYCSSRDKSGSRLSVFGGGTKLTVL"
  Kd (nM): 171
- Binder: "10E8v4-H31FLC Fab (Fab, V domains shown) VH: EVRLVESGGGLVKPGGSLRLSCSASGFDFDNAWMTWVRQPPGKGLEWVGRITGPGEGWSVDYAESVKGRFTISRDNTKNTLYLEMNNVRTEDTGYYFCARTGKYYDFWSGYPPGEEYFQDWGQGTLVIVSS VL: SELTQDPAVSVALKQTVTITCRGDSLRSFYASWYQKKPGQAPVLLFYGKNNRPSGIPDRFSGSASGNRASLTITGAQAEDEADYYCSSRDKSGSRLSVFGGGTKLTVL"
  Kd (nM): 1460

stdin: Tell me the measured Kd of 10E8v4 Fab (Fab, V domains shown) VH: EVRLVESGGGLVKPGGSLRLSCSASGFDFDNAWMTWVRQPPGKGLEWVGRITGPGEGWSVDYAESVKGRFTISRDNTKNTLYLEMNNVRTEDTGYYFCARTGKYYDFWSGYPPGEEYFQDWGQGTLVIVSS VL: SELTQDPAVSVALKQTVTITCRGDSLRSHYASWYQKKPGQAPVLLFYGKNNRPSGIPDRFSGSASGNRASLTITGAQAEDEADYYCSSRDKSGSRLSVFGGGTKLTVL , please.
stdout: 9.4

Ref: paper PMC8293163
